Test: Ex vivo biodistribution in mice with MM1S tumor xenografts
Details: both sexes, NSG, mouse, adrenals, 80 µCi, 30 min p.i.; MM1S xenograft mice; read-out: uptake in adrenals
measured attribute: tissue uptake at 0.5 h (%ID/g)
A number alone suffices; assume %ID/g.

Enquiry: Name the recorded tissue uptake at 0.5 h of the item CC[C@H](C)[C@@H]1NC(=O)[C@@H]2CCCN2C(=O)[C@H](Cc2ccccc2)NC(=O)[C@H](CC(=O)O)NC(=O)[C@H](C)NC(=O)[C@@H]2CSCc3cc(cc(c3)CSC[C@H](NC(=O)[C@H](C)NC(=O)CCOCCOCCOCCNC(=O)CN3CCN(CC(=O)O)CCN(CC(=O)O)CC3)C(=O)N[C@@H](C(C)C)C(=O)N3CCC[C@H]3C(=O)N2)CSC[C@@H](C(N)=O)NC(=O)[C@H](Cc2ccc(O)cc2)NC(=O)[C@H](Cc2c[nH]c3ccccc23)NC1=O [[^68Ga]Ga‐AJ206, metal not drawn] in your answer.
Return: 2.08
